test: total protein half-life in vivo (active degradation + dilution); higher = more stable protein; conditions: E. coli NCM3722 delta-smpB; growth: N-lim chemostat; doubling time 6 h

Chain sequence	total protein half-life in vivo [h]
MRLDKFIAQQLGVSRAIAGREIRGNRVTVDGEIVRNAAFKLLPEHDVAYDGNPLAQQHGPRYFMLNKPQGYVCSTDDPDHPTVLYFLDEPVAWKLHAAGRLDIDTTGLVLMTDDGQWSHRITSPRHHCEKTYLVTLESPVADDTAEQFAKGVQLHNEKDLTKPAVLEVITPTQVRLTISEGRYHQVKRMFAAVGNHVVELHRERIGGITLDADLAPGEYRPLTEEEIASVV [P0AA43]	3.78
MSKIKGNVKWFNESKGFGFITPEDGSKDVFVHFSAIQTNGFKTLAEGQRVEFEITNGAKGPSAANVIAL [P0A972]	1.96
MKITVLGCGALGQLWLTALCKQGHEVQGWLRVPQPYCSVNLVETDGSIFNESLTANDPDFLATSDLLLVTLKAWQVSDAVKSLASTLPVTTPILLIHNGMGTIEELQNIQQPLLMGTTTHAARRDGNVIIHVANGITHIGPARQQDGDYSYLADILQTVLPDVAWHNNIRAELWRKLAVNCVINPLTAIWNCPNGELRHHPQEIMQICEEVAAVIEREGHHTSAEDLRDYVMQVIDATAENISSMLQDIRALRHTEIDYINGFLLRRARAHGIAVPENTRLFEMVKRKESEYERIGTGLPRPW [P0A9J4]	3.22
MTMSLEVFEKLEAKVQQAIDTITLLQMEIEELKEKNNSLSQEVQNAQHQREELERENNHLKEQQNGWQERLQALLGRMEEV [P0AF36]	3.08
MKLRDSLAENKSIRLQAEAETWQEAVKIGVDLLVAADVVEPRYYQAILDGVEQFGPYFVIAPGLAMPHGRPEEGVKKTGFSLVTLKKPLEFNHDDNDPVDILITMAAVDANTHQEVGIMQIVNLFEDEENFDRLRACRTEQEVLDLIDRTNAAA	3.07
MPKLRLIGLTLLALSATAVSHAEETRYVSDELNTWVRSGPGDHYRLVGTVNAGEEVTLLQTDANTNYAQVKDSSGRTAWIPLKQLSTEPSLRSRVPDLENQVKTLTDKLTNIDNTWNQRTAEMQQKVAQSDSVINGLKEENQKLKNELIVAQKKVDAASVQLDDKQRTIIMQWFMYGGGVLGLGLLLGLVLPHLIPSRKRKDRWMN [P0ADT8]	5.94
MKLAVYSTKQYDKKYLQQVNESFGFELEFFDFLLTEKTAKTANGCEAVCIFVNDDGSRPVLEELKKHGVKYIALRCAGFNNVDLDAAKELGLKVVRVPAYDPEAVAEHAIGMMMTLNRRIHRAYQRTRDANFSLEGLTGFTMYGKTAGVIGTGKIGVAMLRILKGFGMRLLAFDPYPSAAALELGVEYVDLPTLFSESDVISLHCPLTPENYHLLNEAAFEQMKNGVMIVNTSRGALIDSQAAIEALKNQKIGSLGMDVYENERDLFFEDKSNDVIQDDVFRRLSACHNVLFTGHQAFLTAEALTSISQTTLQNLSNLEKGETCPNELV	4.57
MAKSLFRALVALSFLAPLWLNAAPRVITLSPANTELAFAAGITPVGVSSYSDYPPQAQKIEQVSTWQGMNLERIVALKPDLVIAWRGGNAERQVDQLASLGIKVMWVDATSIEQIANALRQLAPWSPQPDKAEQAAQSLLDQYAQLKAQYADKPKKRVFLQFGINPPFTSGKESIQNQVLEVCGGENIFKDSRVPWPQVSREQVLARSPQAIVITGGPDQIPKIKQYWGEQLKIPVIPLTSDWFERASPRIILAAQQLCNALSQVD	5.67
MLTVKQIEAAKPKEKPYRLLDGNGLYLYVPVSGKKVWQLRYKIDGKEKILTVGKYPLMTLQEARDKAWTARKDISVGIDPVKAKKASSNNNSFSAIYKEWYEHKKQVWSVGYATELAKMFDDDILPIIGGLEIQDIEPMQLLEVIRRFEDRGAMERANKARRRCGEVFRYAIVTGRAKYNPAPDLADAMKGYRKKNFPFLPADQIPAFNKALATFSGSIVSLIATKVLRYTALRTKELRSMLWKNVDFENRIITIDASVMKGRKIHVVPMSDQVVELLTTLSSITKPVSEFVFAGRNDKKKPICENAVLLVIKQIGYEGLESGHGFRHEFSTIMNEHEWPADAIEVQLAHANGGSVRGIYNHAQYLDKRREMMQWWADWLDEKVE	5.02
MRLCDRDIEAWLDEGRLSINPRPPVERINGATVDVRLGNKFRTFRGHTAAFIDLSGPKDEVSAALDRVMSDEIVLDEGEAFYLHPGELALAVTLESVTLPADLVGWLDGRSSLARLGLMVHVTAHRIDPGWSGCIVLEFYNSGKLPLALRPGMLIGALSFEPLSGPAVRPYNRREDAKYRNQQGAVASRIDKD	3.14
MEQRRLASTEWVDIVNEENEVIAQASREQMRAQCLRHRATYIVVHDGMGKILVQRRTETKDFLPGMLDATAGGVVQADEQLLESARREAEEELGIAGVPFAEHGQFYFEDKNCRVWGALFSCVSHGPFALQEDEVSEVCWLTPEEITARCDEFTPDSLKALALWMKRNAKNEAVETETAE	2.49
MTNLNYQQTHFVMSAPDIRHLPSDTGIEVAFAGRSNAGKSSALNTLTNQKSLARTSKTPGRTQLINLFEVADGKRLVDLPGYGYAEVPEEMKRKWQRALGEYLEKRQSLQGLVVLMDIRHPLKDLDQQMIEWAVDSNIAVLVLLTKADKLASGARKAQLNMVREAVLAFNGDVQVETFSSLKKQGVDKLRQKLDTWFSEMQPVEETQDGE [P0A6P7]	5.19
MSNQFGDTRIDDDLTLLSETLEEVLRSSGDPADQKYVELKARAEKALDDVKKRVSQASDSYYYRAKQAVYRADDYVHEKPWQGIGVGAAVGLVLGLLLARR [P0AEH5]	5.64
